Tested on: HT-29
Assay: Concentration required to kill 50 % of human colon cancer cell line HT-29
Assay type: functional, cell-based
Conditions: ht-29
For each record, write down the corresponding IC50.
Please state the figure in uM l-1; there is no need to write the unit.

Lookup: // query IC50 value for entry COC(=O)[C@@]12CC[C@]3(C)C(CCC4[C@@]5(C)CC[C@H](OC(C)=O)C(C)(C)C5CC[C@]43C)C1=C(C(C)C)C(=O)C2 (some centres not stated)
Found: 149

Lookup: // query IC50 value for entry CCOC(=O)[C@@]12CC[C@]3(C)C(CCC4[C@@]5(C)CC[C@H](O)C(C)(C)C5CC[C@]43C)C1=C(C(C)C)C(=O)C2=O (some centres not stated)
Found: 176

Lookup: // query IC50 value for entry C=C1CC[C@]2(C)C(CCC3[C@@]4(C)CC[C@H](OC(C)=O)C(C)(C)C4CC[C@]32C)C1=O (some centres not stated)
Found: 129

Lookup: // query IC50 value for entry CCOC(=O)[C@@]12CC[C@]3(C)C(CCC4[C@@]5(C)CC[C@H](OC(C)=O)C(C)(C)C5CC[C@]43C)C1=C(C(C)C)C(=O)C2 (some centres not stated)
Found: 224

Lookup: // query IC50 value for entry CC(=O)OC[C@@]12CC[C@]3(C)C(CCC4[C@@]5(C)CC[C@H](OC(=O)CCl)C(C)(C)C5CC[C@]43C)C1=C(C(C)C)C(=O)C2 (some centres not stated)
Found: 110
